Recorded Kd for the following binders
- targetEntity: human IL-6 (human, UniProt P05231 30-212)
- Sequence (P05231 30-212 limits assumed): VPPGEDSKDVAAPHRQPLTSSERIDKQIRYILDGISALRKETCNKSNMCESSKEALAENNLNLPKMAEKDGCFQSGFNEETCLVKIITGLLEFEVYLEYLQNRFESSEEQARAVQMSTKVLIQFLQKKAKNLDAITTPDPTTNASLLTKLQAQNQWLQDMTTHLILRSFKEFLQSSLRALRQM
- experimentalDetails: SPR (Biacore), supernatant antibody on Protein A chip, IL-6 flowed, 37 C

{"binder": "anti-IL-6 antibody, heavy chain I51H, G66D / light chain M32L, M50D, N52S, M88Q (antibody, human IgG1, V domains shown, Human IgG1) VH: EVQLVESGGGLVQPGGSLRLSCAASGFTFSPFAMSWVRQAPGKGLEWVAKHSPGGSWTYYSDTVTDRFTFSLDTSKSTAYLQMNSLRAEDTAVYYCARQLWGYYALDIWGQGTLVTVSS VL: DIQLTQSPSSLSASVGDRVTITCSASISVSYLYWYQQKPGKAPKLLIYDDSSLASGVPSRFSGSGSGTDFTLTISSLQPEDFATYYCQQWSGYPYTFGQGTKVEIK", "Kd [nM]": 0.5}
{"binder": "anti-IL-6 antibody, heavy chain S35T, G66D / light chain M32L, M50D, N52S, M88Q (antibody, human IgG1, V domains shown, Human IgG1) VH: EVQLVESGGGLVQPGGSLRLSCAASGFTFSPFAMTWVRQAPGKGLEWVAKISPGGSWTYYSDTVTDRFTFSLDTSKSTAYLQMNSLRAEDTAVYYCARQLWGYYALDIWGQGTLVTVSS VL: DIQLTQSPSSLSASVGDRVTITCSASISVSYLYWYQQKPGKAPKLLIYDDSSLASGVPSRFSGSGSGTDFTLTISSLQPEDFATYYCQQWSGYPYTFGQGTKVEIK", "Kd [nM]": 0.498}
{"binder": "anti-IL-6 antibody, heavy chain I51R, G66D / light chain M32L, M50D, N52S, M88Q (antibody, human IgG1, V domains shown, Human IgG1) VH: EVQLVESGGGLVQPGGSLRLSCAASGFTFSPFAMSWVRQAPGKGLEWVAKRSPGGSWTYYSDTVTDRFTFSLDTSKSTAYLQMNSLRAEDTAVYYCARQLWGYYALDIWGQGTLVTVSS VL: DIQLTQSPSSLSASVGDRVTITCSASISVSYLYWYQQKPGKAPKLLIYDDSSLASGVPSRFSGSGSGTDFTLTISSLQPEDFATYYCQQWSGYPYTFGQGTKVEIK", "Kd [nM]": 0.0357}
